These measurements were taken from the supplement of paper PMC6555819.

Test system: RXRa homodimer (NR concentration 180 nM)
protocol.summary: PBM binding z-score (relative to random genomic background probes); higher = stronger binding; sequences stand for … in GC…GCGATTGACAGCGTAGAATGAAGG
Returns one of label 1 or label 0; label 1 when PBM binding z-score is >= 0.9.

item_sequence=CGAACGAGGGCATGTGTTGATAGCAAATGCCGAT assigned_class="label 0"
item_sequence=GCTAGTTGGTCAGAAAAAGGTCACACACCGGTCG assigned_class="label 1"
item_sequence=AGATCGAGGGCAATGAGTTGATAGCACGGGTGGC assigned_class="label 0"
item_sequence=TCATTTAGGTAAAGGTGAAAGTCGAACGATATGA assigned_class="label 1"
item_sequence=ATCGAAAGGTCGAGGTGAGGATAGAGAAAGGGAA assigned_class="label 1"
item_sequence=GTACCAAGGTGAATTGGTCGTTGATGAGTAGGCG assigned_class="label 0"
item_sequence=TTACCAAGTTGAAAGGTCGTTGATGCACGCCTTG assigned_class="label 1"
item_sequence=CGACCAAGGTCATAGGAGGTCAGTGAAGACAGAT assigned_class="label 1"
item_sequence=CCTAGTTGGTCAGCAGGTCACACACCGGATATGA assigned_class="label 1"
item_sequence=TTACCAAGGTGAGGTGAGGTCGTTGATCCAACTC assigned_class="label 1"
item_sequence=CCGACTGGGGCAAAGGTTACCTTACTCAGTACGA assigned_class="label 1"
item_sequence=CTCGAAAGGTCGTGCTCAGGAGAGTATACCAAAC assigned_class="label 1"
item_sequence=TCTCGGAGGACACGAAAGGTCAGATCTCGACATC assigned_class="label 1"
item_sequence=CCAGACAGGTGAAAGGTATCTCAGTCTGGTACGC assigned_class="label 1"
item_sequence=CGAACGAGGGCATGAATTGATAGCAAATGCCGAT assigned_class="label 0"
item_sequence=GGAACGAGGGCGAGTTGATAGCAGAGTTTGATGG assigned_class="label 0"
item_sequence=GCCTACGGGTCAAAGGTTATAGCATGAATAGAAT assigned_class="label 1"
item_sequence=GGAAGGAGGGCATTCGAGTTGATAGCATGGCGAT assigned_class="label 0"
item_sequence=CAAACTAGGGCACGAAAGGTCAAAGTCGAATGAC assigned_class="label 1"
item_sequence=AGAATGAGGTTATTAACATCAGGGAATTGCGGTC assigned_class="label 1"
item_sequence=CAAACTAGGTCCAAGGTCAAAGTCGAGCCAACCA assigned_class="label 1"
item_sequence=CTCGAAAGGACGTGCTCAGGTGAGTATACCAAAC assigned_class="label 0"
item_sequence=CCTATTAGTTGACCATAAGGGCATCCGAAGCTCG assigned_class="label 0"
item_sequence=CTCGAAAGTTCGGTTGAGGTGAGTATACGGATAA assigned_class="label 0"
item_sequence=CCTATTGGGCCACGAAAGGTCATTGATTCAGTGA assigned_class="label 1"
